test system: Streptococcus pneumoniae; experiment: In vitro minimum inhibitory concentration against Streptococcus pneumoniae UC41; assay type: functional
Below, each entry is listed alongside its reported MIC.
OBSERVABLE: MIC (µg/mL)

structure_notation=CC(=O)N[C@@H]1[C@H](O[C@@H]2c3ccc(c(Cl)c3)Oc3cc4cc(c3O[C@@H]3O[C@@H](CO)[C@@H](O)[C@H](O)[C@@H]3NC(=O)CCCCCCC(C)C)Oc3ccc(cc3Cl)C[C@H]3NC(=O)[C@H](N)c5ccc(O)c(c5)Oc5cc(O)cc(c5)[C@H](NC3=O)C(=O)N[C@H]4C(=O)N[C@H]3C(=O)N[C@@H]2C(=O)N[C@H](C(=O)NCCN(C)C)c2cc(O)cc(O[C@H]4O[C@H](CO)[C@@H](O)[C@@H](O)[C@@H]4O)c2-c2cc3ccc2O)O[C@@H](CO)[C@@H](O)[C@@H]1O numeric_value=0.06
structure_notation=N[C@H]1C(=O)N[C@@H]2Cc3ccc(c(Cl)c3)Oc3cc4cc(c3O)Oc3ccc(cc3Cl)[C@@H](O)[C@@H]3NC(=O)[C@H](NC(=O)[C@@H]4NC(=O)[C@@H](NC2=O)c2cc(O)cc(c2)Oc2cc1ccc2O)c1ccc(O)c(c1)-c1c(O)cc(O)cc1[C@@H](C(=O)NCCN1CCCC1)NC3=O numeric_value=0.12
structure_notation=CC(=O)N[C@@H]1[C@H](O[C@@H]2c3ccc(c(Cl)c3)Oc3cc4cc(c3O[C@@H]3O[C@@H](CO)[C@@H](O)[C@H](O)[C@@H]3NC(=O)CCCCCCC(C)C)Oc3ccc(cc3Cl)C[C@H]3NC(=O)[C@H](N)c5ccc(O)c(c5)Oc5cc(O)cc(c5)[C@H](NC3=O)C(=O)N[C@H]4C(=O)N[C@H]3C(=O)N[C@@H]2C(=O)N[C@H](C(=O)NCC(=O)O)c2cc(O)cc(O[C@H]4O[C@H](CO)[C@@H](O)[C@@H](O)[C@@H]4O)c2-c2cc3ccc2O)O[C@@H](CO)[C@@H](O)[C@@H]1O numeric_value=0.12

Data provenance: ChEMBL document CHEMBL1124366
